- test-target: T1, pVHL with a C-terminal haemagglutinin affinity tag (human, UniProt P40337 1-213)
- T1 construct: range 1-213; Made in rabbit reticulocyte lysate; Sections (k) to (n) say C-terminal tag; also called pVHL.HA; haemagglutinin tagged pVHL
- T1 sequence (P40337 whole entry): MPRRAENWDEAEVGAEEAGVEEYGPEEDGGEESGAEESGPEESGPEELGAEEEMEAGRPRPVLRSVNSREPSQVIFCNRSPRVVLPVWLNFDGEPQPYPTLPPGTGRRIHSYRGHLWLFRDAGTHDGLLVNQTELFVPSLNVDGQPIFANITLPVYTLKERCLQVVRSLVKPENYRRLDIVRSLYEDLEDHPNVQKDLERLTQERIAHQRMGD
- protocol-details: in vitro interaction assay: IVTT proteins, anti-HA IP, fluorography
assay-readout: binding result

| binder | assay-readout | measured-result |
| --- | --- | --- |
| TQTDFNELDLETLAPYIPMDGEDFQLSPICPEERLL (other, human, UniProt Q99814 517-552, looked up, not shown: large carriers) [HIF-2α sequences 517-552 (minimal oxygen regulated domain, section j)] | binding result | binds |
| HIF-1α amino acid sequence 549-634 fusion protein (other, As for m37) PFSTQDTDLDLEMLAPYIPMDDDFQLRSFDQLSPLESSSASPESASPQSTVTVFQQTQIQEPTANATTTTATTDELKTVTKDRMED | binding result | binds |
| HIF-1α amino acid sequence 530-634 fusion protein (other) EFKLELVEKLFAEDTEAKNPFSTQDTDLDLEMLAPYIPMDDDFQLRSFDQLSPLESSSASPESASPQSTVTVFQQTQIQEPTANATTTTATTDELKTVTKDRMED | binding result | binds |
